Data provenance: ChEMBL document CHEMBL1145801

target: M-phase inducer phosphatase 2 (Homo sapiens, UniProt P30305, Y542F); test: Inhibitory concentration of compound against mutant Y528F of Cell division cycle 25B was determined
Sequence (P30305 whole entry Y542F): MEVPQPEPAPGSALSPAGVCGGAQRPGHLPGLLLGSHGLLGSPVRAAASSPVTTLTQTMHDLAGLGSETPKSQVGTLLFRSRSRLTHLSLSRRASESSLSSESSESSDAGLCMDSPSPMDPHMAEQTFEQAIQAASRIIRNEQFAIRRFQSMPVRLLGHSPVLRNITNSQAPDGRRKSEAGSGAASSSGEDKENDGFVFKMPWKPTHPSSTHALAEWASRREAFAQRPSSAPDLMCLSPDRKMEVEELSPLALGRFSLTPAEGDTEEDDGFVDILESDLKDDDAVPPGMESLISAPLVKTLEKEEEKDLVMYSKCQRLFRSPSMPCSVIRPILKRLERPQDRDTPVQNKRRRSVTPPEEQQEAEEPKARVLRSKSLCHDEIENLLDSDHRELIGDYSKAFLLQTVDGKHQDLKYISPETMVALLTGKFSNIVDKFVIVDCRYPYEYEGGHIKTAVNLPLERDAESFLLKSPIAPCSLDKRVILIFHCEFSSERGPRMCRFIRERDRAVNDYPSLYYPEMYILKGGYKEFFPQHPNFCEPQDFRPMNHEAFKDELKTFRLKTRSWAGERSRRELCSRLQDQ
Assay Metric: IC50
Provide a numeric answer, followed by its unit.

-- ask # get_value(readout='IC50', item= CC(C)=CCc1cccc2c(C3=C(O)C(O)=CC(=O)C3=O)c[nH]c12 )
-- reply 15 µM

###

molecular target: M-phase inducer phosphatase 3 (Homo sapiens); assay: Percent inhibition of cell division cycle 25 degree C at 50 uM
inhibition of 30% or higher: TRUE. Under 30%: FALSE.

Below are worked cases with known answers.
1) C=CC(C)(C)c1[nH]c2ccccc2c1C1=C(O)C(O)=CC(=O)C1=O FALSE
2) CCCc1cccc2c(C3=C(O)C(O)=CC(=O)C3=O)c[nH]c12 TRUE
3) O=C1C=C(O)C(=O)C(c2c[nH]c3cc4c(cc23)OCO4)=C1O TRUE
4) O=C1C=C(O)C(=O)C(c2c[nH]c3cccc(Cl)c23)=C1O FALSE
5) Cc1ccc2c(C3=C(O)C(O)=CC(=O)C3=O)c[nH]c2c1 FALSE

-- ask // inclusive: inhibition at least 30%? input: COc1cccc2c(C3=C(O)C(O)=CC(=O)C3=O)c[nH]c12
-- reply FALSE

-- ask // next record O=C1C=C(O)C(=O)C(c2c[nH]c3c(-c4ccccc4)cccc23)=C1O
-- reply TRUE
